# Tested on: MDA-MB-231 breast
# experimentNotes: NCI-60 one-dose screen, 48 h (100 = growth as untreated, 0 = no growth, -100 = all killed)
# conditionSet: 10 µM unless noted
# Experimental: Cells are grown in 96 well plates and exposed to the test compound for 48 hours. Compounds are tested at a single concentration, which is 10^-5 M for most compounds. The reported endpoint is percent growth (GI% or GIPRCNT), where numbers from 0 - 100% represent growth inhibition, and numbers from -100% - 0 represent cell death. For example, a value of 40 represents 60% growth inhibition. A value of 0 means no net growth occurred over the course of the experiment. […]
Compounds without any hit were thinned out: in the full panel of roughly 83,000, 20% have a hit.
Overview of reported growth across a group of compounds:
Give your result in % as a bare value.

[[record]]
compound = "Nc1ccc(-c2nnc(SCc3ccc(O)c4ncccc34)o2)cc1"
targetentity = "MDA-MB-231 breast"
unitstring = "%"
measvalue = 33.8


In the following, a different compound is considered.
growth for Cc1cc2nc(C(Cl)Cl)nc(-c3ccco3)n2n1 is 64.2

---

# Test system: EKVX NSCLC
# experimentNotes: NCI-60 one-dose screen, 48 h
# conditionSet: 10 µM unless noted
Compounds without any hit were thinned out: in the full panel of roughly 83,000, 20% have a hit. Activity calls are given as the source filed them. The calls were made as follows: active = growth percent below 10; inactive = the rest.
Choose one outcome from this list and give only that: t = active, f = inactive

These solved cases illustrate the format of a correct answer.
[[record]]
compound = "CC1(C)CC[C@]2(C(=O)O)CC[C@]3(C)C(=CCC4[C@@]5(C)C[C@@H](O)[C@@H]6OC(c7cccc([N+](=O)[O-])c7)OC[C@@]6(C)C5CC[C@]43C)C2C1 (stereo partly specified)"
assignedcategory = "f"

[[record]]
compound = "COc1cc2c3c(n(CCCNC4CCCCC4)c(=O)c2cc1OC)-c1cc2c(cc1C3=O)OCO2"
assignedcategory = "t"

[[record]]
compound = "CCOC(=O)/C=c1\\sc2n(c1=O)C1C(NN=2)N(CC)C(=O)N1CC (stereo unspecified)"
assignedcategory = "f"

[[record]]
compound = "COc1cc(/C=N/n2cnc3oc(-c4ccccc4)cc3c2=N)cc(CN2CCN(C)CC2)c1O"
assignedcategory = "f"


Query string: What call does the record list for O=C(Nc1cc(F)cc2cccnc12)c1cnc(N2CCOCC2)cn1 ?
Result string: f

Query string: What call does the record list for CC1OC(O[C@@H]2[C@H](O)C(CO)OC(O[C@H]3COC(O[C@H]4CC[C@]5(C)[C@H]6CC[C@]78OC[C@@]9(CCC(C)(C)C[C@H]97)[C@H](O)C[C@@]8(C)[C@]6(C)CC[C@H]5C4(C)C)[C@@H](OC4OC(CO)[C@@H](O)[C@@H](O)[C@@H]4O)[C@@H]3O)[C@H]2OC2OC[C@@H](O)[C@@H](O)[C@@H]2O)[C@@H](O)[C@@H](O)[C@H]1O (stereo partly specified) ?
Result string: t

---

# Tested on: IGROV1 ovarian
# experimentNotes: NCI-60 one-dose screen, 48 h (100 = growth as untreated, 0 = no growth, -100 = all killed)
# conditionSet: 10 µM unless noted
This is part of a sample that, as a whole, favours compounds with a hit. Of some 83,000 tested, about 20% had one in any assay. Activity calls are given as the source filed them. The calls were made as follows: active = growth percent below 10; inactive = the rest.
quantityMeasured: growth

growth for COc1ccc(Cn2cc3c(c2-c2cc(OC)c(OC)c(OC)c2)CCCc2cnoc2-3)cc1 is 22.1% (inactive)

growth for CC1(C)CC[C@]2(C(=O)N3CCCN(CC#N)CC3)CC[C@]3(C)C(=CC[C@@H]4[C@@]5(C)CC[C@H](O)C(C)(C)[C@@H]5CC[C@]43C)[C@H]2C1 is 66.1% (inactive)

growth for Clc1ccc(-c2csc(Nc3cccc(Nc4csc(-c5ccc(Cl)cc5)n4)c3)n2)cc1 is 50.6% (inactive)

growth for CCOC(=O)C1=C(C)Nc2nc3ccccc3n2C1c1cccc(Br)c1 (centres undefined) is 77.4% (inactive)
